biological target: pSTAT3 (pY705-STAT3) (Homo sapiens); construct: host or cells: cryopreserved PBMC; assay: MSD-pSTAT-PBMC Assay (pSTAT3, IL-6 stimulated); assay type: cell-based; settings: PBMC, compound 3 hrs, then 10 ng/mL IL-6 for 10 min; MSD pY705-STAT3; read-out: pSTAT3
Sequence (P40763 whole entry): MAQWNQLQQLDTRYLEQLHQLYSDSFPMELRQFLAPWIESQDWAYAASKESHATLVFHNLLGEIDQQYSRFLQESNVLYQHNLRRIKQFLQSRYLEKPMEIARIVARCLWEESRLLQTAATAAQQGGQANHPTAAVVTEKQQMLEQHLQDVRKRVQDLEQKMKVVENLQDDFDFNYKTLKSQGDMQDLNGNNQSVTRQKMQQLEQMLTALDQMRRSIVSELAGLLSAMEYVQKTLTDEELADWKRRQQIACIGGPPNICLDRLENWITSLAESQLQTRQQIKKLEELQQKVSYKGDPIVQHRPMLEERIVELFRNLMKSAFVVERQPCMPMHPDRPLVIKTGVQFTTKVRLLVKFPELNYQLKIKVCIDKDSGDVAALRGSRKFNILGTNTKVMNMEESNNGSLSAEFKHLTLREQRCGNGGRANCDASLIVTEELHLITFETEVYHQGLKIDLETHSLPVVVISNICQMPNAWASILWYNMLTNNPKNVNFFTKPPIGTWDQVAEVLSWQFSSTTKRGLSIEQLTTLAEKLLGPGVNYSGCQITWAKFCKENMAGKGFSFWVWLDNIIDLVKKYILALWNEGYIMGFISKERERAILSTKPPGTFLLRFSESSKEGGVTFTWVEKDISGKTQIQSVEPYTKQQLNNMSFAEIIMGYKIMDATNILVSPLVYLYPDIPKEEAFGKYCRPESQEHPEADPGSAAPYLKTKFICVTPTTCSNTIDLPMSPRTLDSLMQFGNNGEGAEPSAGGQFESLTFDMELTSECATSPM
Please go through the items and note down their IC50.

# count of solved cases: 4
compound=CC(C)(C)C(=O)SCCOP(=O)(OCCSC(=O)C(C)(C)C)C(F)(F)c1ccc2sc(C(=O)N[C@H]3C[C@@H]4C[C@@H]4C[C@H]4CC[C@@H](C(=O)N5CC(F)(c6ccc(C#N)cc6)C5)N4C3=O)cc2c1 assayed_target="pSTAT3 (pY705-STAT3) (Homo sapiens)" result="< 100 nM"
compound="COC(=O)[C@H](C)NP(=O)(Cc1ccc2sc(C(=O)N[C@H]3C[C@@H]4C[C@@H]4C[C@H]4CC[C@@H](C(=O)N5CC(C(=O)N6CCOCC6)C5)N4C3=O)cc2c1)Oc1ccccc1 (stereo partly drawn)" assayed_target="pSTAT3 (pY705-STAT3) (Homo sapiens)" result="100 to 1000 nM"
compound="CCCOC(=O)[C@H](C)NP(=O)(Cc1ccc2sc(C(=O)N[C@H]3C[C@@H]4C[C@@H]4C[C@H]4CC[C@@H](C(=O)N5CC(C(=O)N6CCOCC6)C5)N4C3=O)cc2c1)Oc1ccccc1 (stereo partly drawn)" assayed_target="pSTAT3 (pY705-STAT3) (Homo sapiens)" result="100 to 1000 nM"
compound="CCCOC(=O)[C@H](C)N[P@@](=O)(Oc1ccccc1)[C@@H](F)c1ccc2sc(C(=O)N[C@H]3C[C@@H]4C[C@@H]4C[C@H]4CC[C@@H](C(=O)N5C[C@@H](c6cnccc6N(C)C)CC56CC6)N4C3=O)cc2c1 (single isomer, unassigned)" assayed_target="pSTAT3 (pY705-STAT3) (Homo sapiens)" result="< 100 nM"

Please give IC50 for each item listed below.
1. CC(C)OC(=O)OCOP(=O)(Cc1ccc2sc(C(=O)N[C@H]3C[C@@H]4C[C@@H]4C[C@H]4CC[C@@H](C(=O)N5CC(C(=O)N6CCOCC6)C5)N4C3=O)cc2c1)OCOC(=O)OC(C)C
2. CCCOC(=O)[C@H](C)NP(=O)(Cc1ccc2sc(C(=O)N[C@H]3C[C@H]4C[C@H]4C[C@H]4CC[C@@H](C(=O)N[C@H]5CN(c6cccnc6)C[C@@H]5F)N4C3=O)cc2c1)Oc1ccccc1 (stereo partly drawn)
3. COCC(C)(C)OC(=O)OCOP(=O)(OCOC(=O)OC(C)(C)COC)C(F)(F)c1ccc2sc(C(=O)N[C@H]3C[C@H]4C[C@H]4C[C@H]4CC[C@@H](C(=O)N5CC(c6cccnc6)C5)N4C3=O)cc2c1

1: 100 to 1000 nM; 2: < 100 nM; 3: < 100 nM

Please give IC50 for each item listed below.
1. CC(C)CC(=O)SCCOP(=O)(OCCSC(=O)CC(C)C)C(F)(F)c1ccc2sc(C(=O)N[C@H]3C[C@H]4C[C@H]4C[C@H]4CC[C@@H](C(=O)N5CC(c6ncccn6)C5)N4C3=O)cc2c1
2. CC(C)(CO)C(=O)SCCOP(=O)(Cc1ccc2sc(C(=O)N[C@H]3C[C@@H]4C[C@@H]4C[C@H]4CC[C@@H](C(=O)N5CC(n6ccnc6)C5)N4C3=O)cc2c1)OCCSC(=O)C(C)(C)CO

["< 100 nM", "> 3000 nM"]

* * *

Please go through the items and note down their IC50.
target: pSTAT6 (pY641-STAT6) (Homo sapiens, UniProt P42226); assay: MSD-pSTAT-PBMC Assay (pSTAT6, IL-4 stimulated); details: compound 3 hrs, then 1 ng/mL IL-4 for 10 min

# count of solved cases: 6
compound=CC(C)(C)C(=O)SCCOP(=O)(Cc1ccc2sc(C(=O)N[C@H]3C[C@@H]4C[C@@H]4C[C@H]4CC[C@@H](C(=O)N5CC(C(=O)N6CCOCC6)C5)N4C3=O)cc2c1)OCCSC(=O)C(C)(C)C assayed_target="pSTAT6 (pY641-STAT6) (Homo sapiens, UniProt P42226)" quantity=IC50 result="> 3000 nM"
compound="CC(C)(C)C(=O)OCOP(=O)(OCOC(=O)C(C)(C)C)C(F)(F)c1ccc2sc(C(=O)N[C@H]3C[C@@H]4C[C@@H]4C[C@H]4CC[C@@H](C(=O)N5C[C@@H](C#N)[C@H](c6ccccc6)C5)N4C3=O)cc2c1 (relative stereo)" assayed_target="pSTAT6 (pY641-STAT6) (Homo sapiens, UniProt P42226)" quantity=IC50 result="< 100 nM"
compound="CC(C)OC(=O)[C@H](C)NP(=O)(Oc1ccccc1)C(F)(F)c1ccc2sc(C(=O)N[C@H]3C[C@@H]4C[C@@H]4C[C@H]4CC[C@@H](C(=O)N5CC(C(=O)N6CCOCC6)C5)N4C3=O)cc2c1 (stereo partly drawn)" assayed_target="pSTAT6 (pY641-STAT6) (Homo sapiens, UniProt P42226)" quantity=IC50 result="> 3000 nM"
compound=CC(C)(C)C(=O)OCOP(=O)(OCOC(=O)C(C)(C)C)C(F)(F)c1ccc2sc(C(=O)N[C@H]3C[C@H]4C[C@H]4C[C@H]4CC[C@@H](C(=O)N5CC(c6cccnc6)C5)N4C3=O)cc2c1 assayed_target="pSTAT6 (pY641-STAT6) (Homo sapiens, UniProt P42226)" quantity=IC50 result="100 to 1000 nM"
compound="CC(C)OC(=O)[C@H](C)NP(=O)(Cc1ccc2sc(C(=O)N[C@H]3C[C@@H]4C[C@@H]4C[C@H]4CC[C@@H](C(=O)N5CC(C(=O)N6CCOCC6)C5)N4C3=O)cc2c1)Oc1ccccc1 (stereo partly drawn)" assayed_target="pSTAT6 (pY641-STAT6) (Homo sapiens, UniProt P42226)" quantity=IC50 result="> 3000 nM"
compound=CC(C)(C)C(=O)OCOP(=O)(OCOC(=O)C(C)(C)C)C(F)(F)c1ccc2sc(C(=O)N[C@H]3C[C@H]4C[C@H]4C[C@H]4CC[C@@H](C(=O)N5CC(c6ccccn6)C5)N4C3=O)cc2c1 assayed_target="pSTAT6 (pY641-STAT6) (Homo sapiens, UniProt P42226)" quantity=IC50 result="100 to 1000 nM"

Please give IC50 for each item listed below.
1. CC(C)OC(=O)OCOP(=O)(Cc1ccc2sc(C(=O)N[C@H]3C[C@@H]4C[C@@H]4C[C@H]4CC[C@@H](C(=O)N5CC(n6ccnc6)C5)N4C3=O)cc2c1)OCOC(=O)OC(C)C
2. CCCC(=O)SCCOP(=O)(OCCSC(=O)CCC)C(F)(F)c1ccc2sc(C(=O)N[C@H]3C[C@@H]4C[C@@H]4C[C@H]4CC[C@@H](C(=O)N5CC(C(=O)N6CCOCC6)C5)N4C3=O)cc2c1
3. CC(C)(C)C(=O)SCCOP(=O)(OCCSC(=O)C(C)(C)C)C(F)(F)c1ccc2sc(C(=O)N[C@H]3C[C@H]4C[C@H]4C[C@H]4CC[C@@H](C(=O)N5CC(c6ccccn6)C5)N4C3=O)cc2c1

1. > 3000 nM
2. 100 to 1000 nM
3. > 3000 nM

* * *

Molecular target: Recombinant STAT6 protein (STAT6(W123-T658)) (Homo sapiens, UniProt P42226)
Construct: STAT6(W123-T658)
Sequence (P42226 123-658): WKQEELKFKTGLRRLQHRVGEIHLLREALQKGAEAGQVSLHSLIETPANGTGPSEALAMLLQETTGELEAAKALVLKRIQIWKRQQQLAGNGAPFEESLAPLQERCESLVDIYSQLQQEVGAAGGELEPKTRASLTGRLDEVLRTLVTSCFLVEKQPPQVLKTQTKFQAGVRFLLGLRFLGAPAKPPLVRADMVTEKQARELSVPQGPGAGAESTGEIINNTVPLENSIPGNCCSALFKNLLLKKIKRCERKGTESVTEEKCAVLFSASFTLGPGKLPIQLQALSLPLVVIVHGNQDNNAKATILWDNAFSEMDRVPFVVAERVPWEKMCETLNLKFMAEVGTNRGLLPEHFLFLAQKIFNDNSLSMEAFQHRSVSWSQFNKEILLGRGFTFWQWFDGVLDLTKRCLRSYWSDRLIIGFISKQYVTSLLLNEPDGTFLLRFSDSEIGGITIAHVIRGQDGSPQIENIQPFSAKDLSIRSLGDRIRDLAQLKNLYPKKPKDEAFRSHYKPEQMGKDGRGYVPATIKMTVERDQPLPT
Assay: STAT6 Fluorescence Polarization (FP) Assay
Conditions: STAT6(W123-T658) 250 nM, probe 5-FAM-ApYKPFQDLI-NH2 2 nM, 45-minute incubation
pIC50: −log10 of the molar value.
Quantity: pIC50

Please give pIC50 for each item listed below.
1. O=C(NC1C[C@@H]2C[C@@H]2C[C@H]2CC[C@@H](C(=O)N3CC(C(=O)N4CCOCC4)C3)N2C1=O)c1cc2cc(CP(=O)(O)O)ccc2s1 (stereo partly drawn)
2. Cc1nnc(C2CN(C(=O)[C@@H]3CC[C@@H]4C[C@H]5C[C@H]5C[C@H](NC(=O)c5cc6cc(C(F)P(=O)(O)O)ccc6s5)C(=O)N43)C2)o1 (stereo partly drawn)
3. O=C(N[C@H]1C[C@@H]2C[C@@H]2C[C@H]2CC[C@@H](C(=O)N3C[C@@H]4[C@H]3CCN4c3cccnc3)N2C1=O)c1cc2cc(C(F)P(=O)(O)O)ccc2s1 (stereo partly drawn)

< 4.52
4.52 to 5.52
5.52 to 6.52
